Reported protein stability index values are given for each entry in this list.
# protocolDetails: protein stability index of a GFP-peptide fusion (GPS, HEK-293T) (PSI 1-6); higher = more stable;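 note: 24-mer peptide tiles fused after GFP, lentivirally expressed, FACS-sorted into six equal bins by GFP/DsRed ratio, decoded by Illumina sequencing, PSI is the read-weighted mean bin number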
# conditionInfo: treatment: MLN4924 1 uM, 8 h; c terminus: a fixed tail appended
observationType: protein stability index

INSERT INTO results (sequenceentry, observationtype, endpointresult) VALUES
  ('AALAAMNGRKIMGKEVKVNWATTP [TIA1]', 'protein stability index', 2.3),
  ('RCRPRSLIDYKSYMDTKLLVARFL [FAM189A2]', 'protein stability index', 2.3),
  ('INGLQAWLLTHLLWFANAHLLSWF [DHCR7]', 'protein stability index', 3.07),
  ('LTERLKVLEAKMTMLTVIEQPVPP [EMID1]', 'protein stability index', 3.32),
  ('SWMCTRSGNMLGRHFFTSWASCLQ [WDFY1]', 'protein stability index', 2.33),
  ('TDNSIKPQELLEWELVVLGKLKWN [CCND2]', 'protein stability index', 2.81),
  ('EAITDEERAPTATFHDSKHNIVHV [WDFY2]', 'protein stability index', 4.63),
  ('SVLLSWEIPENYNSAMPFKILYDD [PTPRD]', 'protein stability index', 2.29),
  ('DSSCSGQPIHLWQFLKELLLKPHS [SPDEF]', 'protein stability index', 2.46),
  ('RLNGTAKGERRREPGGYDSSSTLM [DVL3]', 'protein stability index', 4.01),
  ('GIGGGIGGGSSRISSVLAGGSCRA [KRT16]', 'protein stability index', 4.05),
  ('RLVHTTAIEHFQPNADLLFSDPSQ [FCHO1]', 'protein stability index', 3.87),
  ('SRLTALTLHQRTHTEERPFKCNYC [ZNF449]', 'protein stability index', 3.03),
  ('KSPLHMTAVHGRFTRSQTLIQNGG [ANKRD44]', 'protein stability index', 3.45),
  ('RSSVELELERCRQQAGLLVTGEKE [PPEF2]', 'protein stability index', 4.86),
  ('IYAMKILRKSDMLEKEQVAHIRAE [STK38L]', 'protein stability index', 2.48),
  ('GFVDLLDGENLKNEEETPSCMASL [CDC25A]', 'protein stability index', 4.62),
  ('WVCLAYFTSGFNAAALDYEADGST [SPACA3]', 'protein stability index', 2.91),
  ('ENRELYIKTTLRELLVYIVFLVDI [PKD2L1]', 'protein stability index', 2.57),
  ('LWEKVMPSRYAAIYNGGVEAVSTL [SLC19A2]', 'protein stability index', 2.07),
  ('NLPFWVKEKANSLKNEIQEVEELD [SPATS1]', 'protein stability index', 4.82),
  ('AIGVGQVDFNTLKSIGSEPHEDHV [MATN2]', 'protein stability index', 4.88),
  ('LQLLLGCKARMERDGYGMTPLLAA [FEM1A]', 'protein stability index', 2.24),
  ('SQSSYLSQHRRIHSGEKPFICKEC [ZNF232]', 'protein stability index', 3.67),
  ('GAARSFQEVTEPAVVAVDRQAIFP [PXN]', 'protein stability index', 4.04),
  ('NTLVTKTMEDTLMTVKQYEAARLE [ARFIP2]', 'protein stability index', 4.55),
  ('TRSHLWEAAQVVPDGLGLDEAREE [TRIB3]', 'protein stability index', 5.13),
  ('SQDEPIALDKQHSRDSAAITHSTY [NOL4L]', 'protein stability index', 5.08),
  ('TFQSSVLRVGIPENAPIGTLLLRL [PCDHGC5]', 'protein stability index', 2.16),
  ('LPTVGGQLGTAGQGFSYSKSNGRG [MYOZ1]', 'protein stability index', 4.4),
  ('SLARLQQLLFVIFLLLYLFTLGTN [OR10K2]', 'protein stability index', 2.13),
  ('QELEEEIKELYENFCKHNGSKNVF [ATL3]', 'protein stability index', 3.57),
  ('LLIPKEDGVITASEDRTIRVWLKR [WDFY1]', 'protein stability index', 2.7),
  ('NCLGIRAFADTHSCRELLRIADKF [KLHL20]', 'protein stability index', 2.2),
  ('VSSDGTLKYMEVTLRPTDSQSHCY [PCDHGC5]', 'protein stability index', 2.65),
  ('LALALKKCKPSLPAEAEGAAQELE [TMEM120A]', 'protein stability index', 4.46),
  ('GSMKIKSSWDIDGRATKRRKKSGD [FBXO34]', 'protein stability index', 4.34),
  ('RSLSPSLSSVDMRMTSSPSSIPRR [RAD54B]', 'protein stability index', 4.69),
  ('VKAKEQIENYKKQTRNGLGKDHEI [FUT8]', 'protein stability index', 4.76),
  ('NQEDAIHFHRTLKEACDQHGPDLY [CPOX]', 'protein stability index', 4.47),
  ('VRDQGPSIPLTPGDTPIRKKEELL [FBF1]', 'protein stability index', 5.33),
  ('IISKPVPQTLIMAYDYAKEVNSAE [FEM1C]', 'protein stability index', 2.81),
  ('YSFISLFIYMVLSLFIALITGAYD [MCOLN1]', 'protein stability index', 3.22),
  ('TSPTRQHHVEREKDHSSSRPSSPR [BTBD10]', 'protein stability index', 5.45),
  ('SDAIRVVNAVLTQIDQIKRHSNVV [TRIP13]', 'protein stability index', 2.35),
  ('GAGAGSSLLDVAEPGGPGWLPESD [SMAD6]', 'protein stability index', 5.01),
  ('LAGQFLEELRKFSSLCYKQRIKSQ [MOG]', 'protein stability index', 2.14),
  ('GPVRSSSGMGGRAPVSRGRDSYGG [RBMX]', 'protein stability index', 4.53);

Values from the supplement of paper PMC10567573
